tested on: Pharbitis purpurea; assay: Pre-emergence herbicidal action; assay type: in vivo; details: 1280 g/ha, scored visually after about 3 weeks vs untreated controls
So I've got a bunch of compounds here, and I need their herbicidal activity on Pharbitis purpurea values.
One number for each entry, in %.

Below, each entry is followed by its recorded herbicidal activity on Pharbitis purpurea result.
Fc1ccc(Sc2c(Oc3ncccn3)nn3c2CCC3)cc1	90
CCn1cc(Sc2ccc(F)cc2)c(Oc2ncccn2)n1	80
CCc1c(Sc2ccc(F)cc2F)c(Oc2ncc(F)cn2)nn1C	100
Cc1c(Sc2ccc(F)c(F)c2)c(Oc2ncccn2)nn1C	80
Cc1c(Sc2ccc(F)c(F)c2)c(Oc2ncc(F)cn2)nn1C	80

Report herbicidal activity on Pharbitis purpurea for every entry below.
1. CCn1cc(Sc2ccc(F)cc2)c(Oc2ncc(F)cn2)n1
2. CCc1c(Sc2ccc(F)c(F)c2)c(Oc2ncccn2)nn1C

Result:
1: 80; 2: 80

Items follow; give herbicidal activity on Pharbitis purpurea for each.
1. COc1cnc(Oc2nn(C)c(C)c2Sc2ccc(F)cc2F)nc1
2. Cc1c(Sc2ccccc2)c(Oc2ncccn2)nn1C

Result:
1: 100; 2: 90

###

For each record, write down the corresponding herbicidal activity on Echinochloa crus-galli.
tested on: Echinochloa crus-galli; experiment: Pre-emergence herbicidal action; format: in vivo; details: 1280 g/ha, scored visually after about 3 weeks vs untreated controls
Answers are plain numbers, in %.

Example entries begin here.
COc1cnc(Oc2nn(C)c(C)c2Sc2ccc(Cl)cc2)nc1 [Example I-066]	100
CCc1c(Sc2ccc(F)cc2F)c(Oc2ncccn2)nn1C [Example I-136]	90
COc1cnc(Oc2nn(C)c(C)c2Sc2ccc(F)cc2)nc1 [Example I-089]	100
CCn1cc(Sc2ccc(F)cc2)c(Oc2ncc(F)cn2)n1 [Example I-211]	90
Cc1c(Sc2ccc(F)cc2)c(Oc2ncc(F)cn2)nn1C [Example I-090]	100
Cc1c(Sc2ccc(F)cc2)c(Oc2ncccn2)nn1C [Example I-087]	80
Cc1c(Sc2ccc(F)c(F)c2)c(Oc2ncc(F)cn2)nn1C [Example I-093]	100
CCn1cc(Sc2ccc(F)cc2)c(Oc2ncccn2)n1 [Example I-038]	80

I'm hoping you can list herbicidal activity on Echinochloa crus-galli for every compound here, please.
1. COc1cnc(Oc2nn(C)c(C)c2Sc2ccc(F)cc2Cl)nc1 [Example I-156]
2. Cn1cc(Sc2ccccc2)c(Oc2ncc(Cl)cn2)n1 [Example I-120]

Result:
[80, 100]

###

tested on: Polygonum convolvulus; assay: Post-emergence herbicidal action; type: in vivo; conditions: 1280 g/ha, rated visually after about 3 weeks vs untreated controls
So I've got a bunch of molecules here, and I need their herbicidal activity on Polygonum convolvulus values.
One number for each entry, in %.

// below: answered molecules
Cc1c(Sc2ccc(F)cc2F)c(Oc2ncccn2)nn1C	100
Cn1cc(Sc2ccccc2)c(Oc2ncccn2)n1	90
Cc1c(Sc2cccc(F)c2)c(Oc2ncccn2)nn1C	100

Hey, can you go through the list below and give me herbicidal activity on Polygonum convolvulus for every item?
1. COc1cnc(Oc2nn(C)c(C)c2Sc2ccc(F)c(F)c2)nc1
2. Cc1c(Sc2ccc(F)cc2Cl)c(Oc2ncc(F)cn2)nn1C
3. COc1cnc(Oc2nn(C)c(C)c2Sc2ccc(F)cc2Cl)nc1

Result:
1: 80; 2: 100; 3: 80

Batch of 3 molecules: report herbicidal activity on Polygonum convolvulus for each.
1. CCn1cc(Sc2ccc(F)cc2)c(Oc2ncc(F)cn2)n1
2. Cc1c(Sc2ccc(F)cc2)c(Oc2ncc(Cl)cn2)nn1C
3. CCc1c(Sc2ccc(F)c(F)c2)c(Oc2ncc(F)cn2)nn1C

Result:
[100, 80, 80]
